meta.source: ChEMBL document CHEMBL4007418

- tgt: Heat shock protein HSP 90-alpha (Homo sapiens, UniProt P07900)
- methodNotes: Dissociation rate from HSP90A (unknown origin) by surface plasmon resonance method
Decision: koff >= 0.2 s⁻¹ yields yes (1), all other cases yield no (0).

// below: answered compounds
>  <compound>
CC1CCc2cc(F)ccc2N1C(=O)c1ccc(O)cc1O (racemic)

>  <tgt>
Heat shock protein HSP 90-alpha (Homo sapiens, UniProt P07900)

>  <categoryLabel>
yes (1)

$$$$
>  <compound>
C[C@@H]1CCc2cc(F)ccc2N1C(=O)c1ccc(O)cc1O

>  <tgt>
Heat shock protein HSP 90-alpha (Homo sapiens, UniProt P07900)

>  <categoryLabel>
yes (1)

$$$$
>  <compound>
CCNC(=O)c1noc(-c2cc(Cl)c(O)cc2O)c1-c1ccc(CN2CCOCC2)cc1C

>  <tgt>
Heat shock protein HSP 90-alpha (Homo sapiens, UniProt P07900)

>  <categoryLabel>
no (0)

$$$$

Enquiry: For this compound, is measured koff 0.2 s⁻¹ or higher? COc1cc2c(cc1OC)C(c1cccnc1)N(C(=O)c1ccc(O)cc1O)CC2 (stereo unspecified)
Return: yes (1)

Enquiry: Does the compound O=C(c1ccc(O)cc1O)N(Cc1ccccc1)c1ccccc1 have recorded koff that is 0.2 s⁻¹ or more?
Return: no (0)

Enquiry: Entry C[C@H]1CCc2cc(F)ccc2N1C(=O)c1ccc(O)cc1O : is its koff no less than 0.2 s⁻¹?
Return: no (0)

* * *

- tgt: UniProtKB P07900
valueKind: pKi
Keep in mind that pKi stands for -log10 of concentration in molar terms.

Worked cases, pKi given:
>  <inputSmiles>
Cc1cnc(Cl)nc1-c1ccc2c(c1)CC[C@H](C)N2C(=O)c1ccc(O)cc1O

>  <pKi>
5.70

$$$$
>  <inputSmiles>
CN(Cc1ccc2nccnc2c1)C(=O)c1ccc(N(Cc2ccccc2)C(=O)c2ccc(O)cc2O)cc1

>  <pKi>
5.99

$$$$

Please look at the following compound next.
Record C[C@H]1CCc2cc(-c3nc(Cl)nc4ccsc34)ccc2N1C(=O)c1ccc(O)cc1O has UniProtKB P07900 pKi equal to 5.75

* * *

- tgt: [Pyruvate dehydrogenase (acetyl-transferring)] kinase isozyme 1, mitochondrial (Homo sapiens)
- methodNotes: Binding affinity to PDHK1 (unknown origin) by surface plasmon resonance method
valueKind: koff (s⁻¹)
The answer is to be given in s⁻¹; state only the numeric part.

Below, 2 molecules whose answers are already recorded.
>  <molecule>
COc1cc2c(cc1OC)C(c1cccnc1)N(C(=O)c1ccc(O)cc1O)CC2 (stereo unspecified)

>  <valueKind>
koff

>  <numericReadout>
0.019

$$$$
>  <molecule>
CC1CCc2cc(F)ccc2N1C(=O)c1ccc(O)cc1O (racemic)

>  <valueKind>
koff

>  <numericReadout>
0.08

$$$$

Notebook: C[C@@H]1CCc2cc(F)ccc2N1C(=O)c1ccc(O)cc1O , koff read as 0.27

Sample C[C@H]1CCc2cc(F)ccc2N1C(=O)c1ccc(O)cc1O ; koff observed: 0.08

Value of koff reported for the molecule O=C(c1ccc(O)cc1O)N(Cc1ccccc1)c1ccccc1 is 0.26

According to the records, this molecule CCNC(=O)c1noc(-c2cc(Cl)c(O)cc2O)c1-c1ccc(CN2CCOCC2)cc1C displays koff of 0.014

* * *

- tgt: [Pyruvate dehydrogenase (acetyl-transferring)] kinase isozyme 1, mitochondrial (Homo sapiens, UniProt Q15118)
- Sequence (Q15118 whole entry): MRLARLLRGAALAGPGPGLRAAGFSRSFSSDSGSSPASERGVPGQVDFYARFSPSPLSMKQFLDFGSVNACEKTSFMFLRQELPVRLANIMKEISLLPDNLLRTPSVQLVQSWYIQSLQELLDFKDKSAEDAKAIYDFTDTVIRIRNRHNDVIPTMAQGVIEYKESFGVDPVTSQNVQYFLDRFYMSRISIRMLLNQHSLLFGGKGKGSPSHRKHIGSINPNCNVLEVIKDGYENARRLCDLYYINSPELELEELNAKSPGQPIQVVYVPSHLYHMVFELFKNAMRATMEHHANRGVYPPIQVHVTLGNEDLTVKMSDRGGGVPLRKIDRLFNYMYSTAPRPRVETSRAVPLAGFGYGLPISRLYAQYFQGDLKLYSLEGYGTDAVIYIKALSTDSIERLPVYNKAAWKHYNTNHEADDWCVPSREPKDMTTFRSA
- methodNotes: Binding affinity to PDHK1 (unknown origin) by isothermal titration calorimetry
The following molecules are shown together with reported pKd values.
Notebook: values listed as pKd are -log10 of the concentration (mol/L).

>  <inputSmiles>
Cc1cnc(Cl)nc1-c1ccc2c(c1)CC[C@H](C)N2C(=O)c1ccc(O)cc1O

>  <valueKind>
pKd

>  <numericReadout>
7.49

$$$$
>  <inputSmiles>
Cc1cc2ccccc2nc1-c1ccc2c(c1)CC[C@H](C)N2C(=O)c1ccc(O)cc1O

>  <valueKind>
pKd

>  <numericReadout>
6.82

$$$$

Alright, here's another molecule for you.
Value of pKd reported for the molecule Cc1cnc(Cl)nc1-c1ccc(N(Cc2ccccc2)C(=O)c2ccc(O)cc2O)cc1 is 7.22
